Below, each of the variants is paired with its reported polymerase ribozyme fitness (log ratio) value.
B1: TPR 5TU (parent)
chain: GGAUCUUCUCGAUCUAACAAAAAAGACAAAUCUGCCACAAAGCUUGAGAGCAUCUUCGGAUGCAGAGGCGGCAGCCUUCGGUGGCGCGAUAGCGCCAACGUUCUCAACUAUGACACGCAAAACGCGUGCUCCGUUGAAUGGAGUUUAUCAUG

- Variants of: B1
- assay_details: polymerase ribozyme fitness, log enrichment relative to wild type (log ratio); higher = more active; in vitro selection for triplet polymerase activity
This sample holds only a part of the variants without activity.

U33G U55C C76U G86U C105A C116U | ≤ -4.2
A49C C72A C108A U135G | ≤ -4.2

Record summary for A49C G50C C76U A91U A97U U111C G143C A150U : reported polymerase ribozyme fitness (log ratio) = ≤ -4.2

# polymerase ribozyme fitness (log ratio) of G48C C63U C69U G74A C93A U102G A107G = ≤ -4.2

Record summary for G84U C87A C116U : reported polymerase ribozyme fitness (log ratio) = ≤ -4.2

Lookup result for A30U G50C U56A A66C G141A ; measured polymerase ribozyme fitness (log ratio): ≤ -4.2

In plain terms, C51U C87A has a documented polymerase ribozyme fitness (log ratio) of ≤ -4.2

response.value for G81U G84U A119U G143A (field: polymerase ribozyme fitness (log ratio)) = -1.61

Entry under test: A23C A28C G46A U55A C96U . Its polymerase ribozyme fitness (log ratio) was ≤ -4.2

The measured polymerase ribozyme fitness (log ratio) associated with C32A U53G C85U C96G G136C reads ≤ -4.2

For A23G A49U C51U U53A A60G U61A G71U A73G C85A C87A C105G the variant record lists polymerase ribozyme fitness (log ratio) as ≤ -4.2

get_value(item= C32G A110G A122C G141C , readout=polymerase ribozyme fitness (log ratio)) returns -4.02
